# melting point values compiled below

Study these solved cases before continuing.
C[N+](C)([O-])c1ccc(/C=C/c2c(F)cccc2F)cc1 [4z] :: 100 to 103 °C
CN(C)c1ccc(/C=C/c2ccc(F)c(F)c2)cc1 [4t] :: 159 to 160 °C
CN(C)c1ccc(/C=C/c2ccccc2F)c2ccccc12 [4k] :: 56 to 58 °C
CN(C)c1ccc(/C=C/c2ccc(F)cc2F)cc1 [4n] :: 139 to 140 °C

In: Please give the measured melting point for this compound: CN(C)c1ccc(/C=C/c2c(F)ccc(F)c2F)cc1 [4v]
Out: 91 to 92 °C

In: Look at this compound and give its reported melting point. CN(C)c1ccc(/C=C/c2cccc(F)c2)cc1 [4f]
Out: 147 to 148 °C

In: Look up melting point: CN(C)c1ccc(/C=C/c2ccccc2F)cc1 [4e]
Out: 124 to 126 °C

In: Using the record for CN(C)c1ccc(/C=C/c2cc(F)ccc2F)cc1 [4o] , report its melting point.
Out: 146 to 147 °C

In: I'd like to know its melting point. The compound in question is CN(C)c1cccc(/C=C/c2c(F)cccc2F)c1 [4q]
Out: 69 to 71 °C

In: State the recorded melting point for this entry: CN(C)c1ccc(/C=C/c2ccc(F)cc2)cc1 [4g]
Out: 197 to 198 °C

In: // query melting point value for entry CCN(CC)c1ccc(/C=C/c2c(F)cccc2F)cc1 [4s]
Out: 70 to 71 °C

----------
measured attribute: melting point

CN(C)c1ccc(/C=C/c2c(F)cccc2Cl)cc1 [4x] :: 42 to 44 °C

In: Field request: melting point | item: Fc1ccccc1/C=C/c1ccc(N(c2ccccc2)c2ccccc2)cc1 [4i]
Out: 114 to 115 °C

In: GET /values?readout=melting point&item= CCN(CC)c1ccc(/C=C/c2ccccc2F)cc1 [4h]
Out: 78 to 79 °C

In: Consider the compound CN(C)c1ccc(/C=C/c2cc(F)cc(F)c2)cc1 [4u] and give its measured melting point.
Out: 136 to 137 °C

In: Entry CN(C)c1ccc(/C=C/c2c(F)cc(F)cc2F)cc1 [4w] has what melting point?
Out: 127 to 128 °C

----------
measured attribute: melting point

C[N+](C)([O-])c1ccc(/C=C/c2c(F)cccc2Cl)cc1 :: 82 to 84 °C
CN(C)c1ccc(/C=C/c2c(Cl)cccc2Cl)cc1 :: 96 to 97 °C
COc1ccc(/C=C/c2ccccc2)cc1 [4b, (E)-4-Methoxystilbene] :: 136 to 137 °C
CN(C)c1ccc(/C=C/c2cccc(F)c2F)cc1 :: 132 to 133 °C

In: Can you share its melting point? I mean this molecule: `CN1CCN(c2ccc(/C=C/c3ccccc3F)cc2)CC1`
Out: 142 to 144 °C

In: Looking for the measured melting point of `C[N+](C)([O-])c1ccc(/C=C/c2c(Cl)cccc2Cl)cc1` , can you help?
Out: 80 to 82 °C
